# testDetails: solvent given as SMILES
# testSettings: in Cc1ccccc1
reportedEndpoint: absorption maximum
Could you kindly put the unit after your number?

Here's what some known entries look like.
c1cc2ccc3ccc4cc3c2cc1c1ccc2ccc3ccc(cc3c2c1)c1ccc2c(c1)c1cc4ccc1[C@]13OCCO[C@]21OCCO3; 366 nm
F[B-]1(F)n2c(-c3cccs3)cc(-c3cccs3)c2N=C2C(c3cccs3)=CC(c3cccs3)=[N+]21; 743 nm
CCC1(CC)c2cc(B(c3c(C)cc(C)cc3C)c3c(C)cc(C)cc3C)ccc2-c2ccc(N(c3ccccc3)c3ccccc3)cc21; 403 nm

Measured absorption maximum of c1ccc2c(c1)c1ccccc1n2-c1ccc(-c2nnc(-c3ccc(-n4c5ccccc5c5ccccc54)cc3)o2)cc1 : 343 nm

Measured absorption maximum of O=C1/C(=C/C=C/c2cc3c4c(c2)CCCN4CCC3)CC/C1=C\C=C\c1cc2c3c(c1)CCCN3CCC2 : 505 nm

Measured absorption maximum of N#Cc1c(-n2c3ccc(I)cc3c3cc(I)ccc32)c(C#N)c(-n2c3ccc(I)cc3c3cc(I)ccc32)c(-n2c3ccc(I)cc3c3cc(I)ccc32)c1-n1c2ccc(I)cc2c2cc(I)ccc21 : 384 nm

Measured absorption maximum of CCCCCCCCn1c2cc(/C=C/c3ccc(N(c4ccccc4)c4ccccc4)cc3)ccc2c2cc3c(cc21)c1ccc(/C=C/c2ccc(N(c4ccccc4)c4ccccc4)cc2)cc1n3CCCCCCCC : 416 nm
